- Tested on: EfPiwi piRISC loaded with L1MC piRNA (26 nt)
- assay.procedure: pre-steady-state target cleavage rate (min^-1); auxiliary factor: 500 nM Ephydatia muelleri Gtsf1; guide: L1MC piRNA 5'p-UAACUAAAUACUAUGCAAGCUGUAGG; MIWI and MILI are mouse PIWI proteins and EfPiwi is from a freshwater sponge; tags in brackets are library labels; higher = faster piRNA-guided slicing of the target
Assign t to entries whose pre-steady-state target cleavage rate meets or exceeds 0.006; assign f to the rest.

>  <chain>
UCCUCCUACACCUUGCAUAGUAUUUAGUAA

>  <class.assignment>
t

$$$$
>  <chain>
UCCUGGAUCAGCUUGCAUAGUAUUAAGUUA

>  <class.assignment>
t

$$$$
>  <chain>
UCCUGGAUGUCGAACGUUAGUAUUUUCAAA [g6:g13:cont:t1A]

>  <class.assignment>
f

$$$$
>  <chain>
UCCUGGAUGUGCUUGCAUAGUAUUUAGUUG [g2:g20:cont:t1G]

>  <class.assignment>
t

$$$$
>  <chain>
UCCUGGAUGAGCUUGCAUAGUCUUUAGUUA

>  <class.assignment>
t

$$$$
>  <chain>
UCCUGCUACAGCUUGCAUAAGUAUUUAGUUA

>  <class.assignment>
f

$$$$
>  <chain>
UCCUCCUACAGCUUGCAUUGUAUUUUGUUA

>  <class.assignment>
f

$$$$
>  <chain>
UCCUGGUACAGCUUGCAUAGUAUUAUCUAA

>  <class.assignment>
f

$$$$
>  <chain>
UCCUGGAUGUCGAACCAUAGUAUUUCGUUA

>  <class.assignment>
f

$$$$
>  <chain>
UCCUGGAACAGCUUGCAUUGUAAUUAGUUA

>  <class.assignment>
f

$$$$
>  <chain>
UCCUGGUACAGCUAGCAAAGUAUUUAGUUA

>  <class.assignment>
t

$$$$
